study system: ER (Homo sapiens, UniProt P03372)
Construct: transfected in MCF7 cells (containing endogenous ER); endogenous in cells; host or cells: MCF7 cells
protocol details: ER transcription assay (MCF7 cells), ERE-luciferase reporter
Type: cell-based
test context: MCF7 cells, ER reporter gene, 0.1 nM 17β estradiol, 24 hours; read-out: MCF7 IC50 (inflection point of the inhibition of transcription in MCF7 cells)

compound	unit spec	IC50
CNC(=O)/C=C/c1ccc(Oc2c(-c3ccc(O)cc3)sc3cc(O)ccc23)cc1 [Example 66]	nM	53
Cc1c(O)cccc1-c1sc2cc(O)ccc2c1Oc1ccc(/C=C/C(=O)O)cc1 [Example 16]	nM	128
Cc1nnc(/C=C/c2ccc(Oc3c(-c4ccc(F)cc4C)sc4cc(O)ccc34)cc2)[nH]1 [Example 49]	nM	41
Cc1cc(F)ccc1-c1sc2cc(O)ccc2c1Oc1ccc(/C=C/c2n[nH]c(=O)o2)cc1 [Example 48]	nM	422

* * *

study system: ER (Homo sapiens, UniProt P03372)
Construct: transfected in MCF7 cells (containing endogenous ER); endogenous in cells; host or cells: MCF7 cells
protocol details: ER transcription assay (MCF7 cells), ERE-luciferase reporter
Assay type: cell-based
test context: MCF7 cells, ER reporter gene, 0.1 nM 17β estradiol, 24 hours; read-out: MCF7 IC50 (inflection point of the inhibition of transcription in MCF7 cells)
quantity name: log10 IC50 (log10 of the value in nM)

compound	log10 IC50
O=C(O)/C=C/c1ccc(Oc2c(-c3ccc(O)cc3)sc3cc(O)ccc23)cc1	2.87
Cc1cc(F)ccc1-c1sc2cc(O)ccc2c1Oc1ccc(/C=C/C(=O)NO)cc1	1.18
Cn1nnc(/C=C/c2ccc(Oc3c(-c4ccc(O)cc4)sc4cc(O)ccc34)cc2)n1	0.48
CC(C)c1ccccc1-c1sc2cc(O)ccc2c1Oc1ccc(/C=C/C(=O)O)cc1	0.78
O=C(O)/C=C/c1ccc(Oc2c(-c3ccc(O)cc3)sc3cc(O)ccc23)cn1	3.89
CNC(=O)/C=C/c1ccc(Oc2c(-c3ccc(C(F)(F)F)cc3)sc3cc(O)ccc23)cc1 [Example 70]	2.43
O=C(/C=C/c1ccc(Oc2c(-c3ccc(O)cc3)sc3cc(O)ccc23)cc1)NCCC(F)(F)F	1.00
CCCn1cnc(/C=C/c2ccc(Oc3c(-c4ccc(O)cc4)sc4cc(O)ccc34)cc2)c1	2.03

* * *

study system: ER (Homo sapiens, UniProt P03372)
Construct: transfected in MCF7 cells (containing endogenous ER); endogenous in cells; host or cells: MCF7 cells
Sequence (P03372 1-595): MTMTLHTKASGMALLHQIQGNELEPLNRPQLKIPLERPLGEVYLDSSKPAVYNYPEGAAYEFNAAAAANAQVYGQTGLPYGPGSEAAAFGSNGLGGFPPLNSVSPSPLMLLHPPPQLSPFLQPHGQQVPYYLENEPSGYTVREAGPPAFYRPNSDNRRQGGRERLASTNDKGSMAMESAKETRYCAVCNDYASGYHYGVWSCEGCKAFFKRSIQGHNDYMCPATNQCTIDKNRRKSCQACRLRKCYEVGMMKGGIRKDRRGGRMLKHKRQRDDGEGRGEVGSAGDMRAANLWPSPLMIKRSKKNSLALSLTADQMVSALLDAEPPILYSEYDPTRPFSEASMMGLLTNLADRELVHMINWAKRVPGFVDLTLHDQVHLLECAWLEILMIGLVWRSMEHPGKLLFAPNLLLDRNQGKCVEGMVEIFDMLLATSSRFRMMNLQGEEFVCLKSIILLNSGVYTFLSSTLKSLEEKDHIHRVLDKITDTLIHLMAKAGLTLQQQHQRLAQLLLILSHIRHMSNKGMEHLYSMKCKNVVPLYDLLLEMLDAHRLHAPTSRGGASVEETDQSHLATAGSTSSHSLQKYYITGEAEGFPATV
protocol details: ER transcription assay (MCF7 cells), ERE-luciferase reporter
Assay type: cell-based
test context: MCF7 cells, ER reporter gene, 0.1 nM 17β estradiol, 24 hours; read-out: MCF7 IC50 (inflection point of the inhibition of transcription in MCF7 cells)
quantity name: log10(IC50) (log10 of the value in nM)

line notation	log10(IC50)
O=C(O)/C=C/c1ccc(Oc2c(-c3cccc(F)c3)sc3cc(O)ccc23)cc1	2.85
O=C(O)/C=C/c1ccc(Oc2c(-c3ccc(O)c(F)c3)sc3cc(O)ccc23)cc1	2.63
O=C(/C=C/c1ccc(Oc2c(-c3ccc(F)cc3)sc3cc(O)ccc23)cc1)NCCC(F)(F)F	1.86
CCCc1nnc(/C=C/c2ccc(Oc3c(-c4ccc(F)cc4C)sc4cc(O)ccc34)cc2)o1	2.05
CNC(=O)/C=C/c1ccc(Oc2c(-c3ccc(O)cc3)sc3cc(O)ccc23)cn1	1.72
C/C(=C\C(=O)O)c1ccc(Oc2c(-c3ccc(O)cc3)sc3cc(O)ccc23)cc1	2.50
O=C(O)/C=C/c1ccc(Oc2c(-c3ccc(C(F)F)cc3)sc3cc(O)ccc23)cc1	3.90
CCCn1cncc1/C=C/c1ccc(Oc2c(-c3ccc(O)cc3)sc3cc(O)ccc23)cc1	1.00
Cc1cc(F)ccc1-c1sc2cc(O)ccc2c1Oc1ccc(/C=C/c2nnc(C3CC3)o2)cc1	1.20
CCCn1nnnc1/C=C/c1ccc(Oc2c(-c3ccc(F)cc3C)sc3cc(O)ccc23)cc1	2.51
CC(C)(C)c1ccc(-c2sc3cc(O)ccc3c2Oc2ccc(/C=C/C(=O)O)cc2)cc1	2.93
Cc1ccccc1-c1sc2cc(O)ccc2c1Oc1ccc(/C=C/C(=O)O)cc1	1.95
Cn1nnnc1/C=C/c1ccc(Oc2c(-c3ccc(O)cc3)sc3cc(O)ccc23)cc1	0.00
C/C(=C\c1ccc(Oc2c(-c3ccc(O)cc3)sc3cc(O)ccc23)cc1)C(=O)O	2.95
Cc1cc(Oc2c(-c3ccc(O)cc3)sc3cc(O)ccc23)ccc1/C=C/C(=O)O	3.10
O=C(O)/C=C/c1ccc(Oc2c(-c3ccc(O)cc3)sc3c(F)c(O)c(F)cc23)cc1	2.18
Cc1cc(-c2sc3cc(O)ccc3c2Oc2ccc(/C=C/C(=O)O)cc2)ccc1O	2.51
O=C(O)/C=C/c1ccc(Oc2c(-c3ccccc3C(F)(F)F)sc3cc(O)ccc23)cc1	1.36
CCc1ccccc1-c1sc2cc(O)ccc2c1Oc1ccc(/C=C/C(=O)O)cc1	1.56
Cc1cc(C(F)(F)F)ccc1-c1sc2cc(O)ccc2c1Oc1ccc(/C=C/C(=O)O)cc1	2.32
Cn1nnnc1/C=C/c1ccc(Oc2c(-c3ccc(F)cc3)sc3cc(O)ccc23)cc1	3.78
O=C(O)/C=C/c1ccc(Oc2c(-c3ccc(O)cc3)sc3c(F)c(O)ccc23)cc1	2.81
O=C(O)/C=C/c1ccc(Oc2c(-c3ccc(C(F)(F)F)cc3C(F)(F)F)sc3cc(O)ccc23)cc1	1.72
C[C@H](O)c1ccccc1-c1sc2cc(O)ccc2c1Oc1ccc(/C=C/C(=O)O)cc1	2.25
Cc1cc(/C=C/C(=O)O)ccc1Oc1c(-c2ccc(O)cc2)sc2cc(O)ccc12	3.01
Cc1noc(C)c1-c1sc2cc(O)ccc2c1Oc1ccc(/C=C/C(=O)O)cc1	2.61
O=C(/C=C/c1ccc(Oc2c(-c3ccc(O)cc3)sc3cc(O)ccc23)cc1)NCCO	1.74
COC(=O)/C=C/c1ccc(Oc2c(-c3ccc(O)cc3)sc3c(F)c(O)c(F)cc23)cc1	1.61
COC(=O)/C=C/c1ccc(Oc2c(-c3ccc(F)cc3)sc3cc(O)ccc23)cc1	2.14
CNC(=O)/C=C/c1ccc(Oc2c(-c3ccc(O)c(F)c3)sc3cc(O)ccc23)cc1	1.61
CCOC(=O)/C=C/c1ccc(Oc2c(-c3ccc(O)cc3)sc3cc(O)ccc23)cc1C	1.68
Cc1nnc(/C=C/c2ccc(Oc3c(-c4ccc(F)cc4C)sc4cc(O)ccc34)cc2)o1	2.03
COc1cc(Oc2c(-c3ccc(O)cc3)sc3cc(O)ccc23)ccc1/C=C/C(=O)O	3.70

* * *

study system: ER (Homo sapiens, UniProt P03372)
Construct: transfected in MCF7 cells (containing endogenous ER); endogenous in cells; host or cells: MCF7 cells
Sequence (P03372 1-595): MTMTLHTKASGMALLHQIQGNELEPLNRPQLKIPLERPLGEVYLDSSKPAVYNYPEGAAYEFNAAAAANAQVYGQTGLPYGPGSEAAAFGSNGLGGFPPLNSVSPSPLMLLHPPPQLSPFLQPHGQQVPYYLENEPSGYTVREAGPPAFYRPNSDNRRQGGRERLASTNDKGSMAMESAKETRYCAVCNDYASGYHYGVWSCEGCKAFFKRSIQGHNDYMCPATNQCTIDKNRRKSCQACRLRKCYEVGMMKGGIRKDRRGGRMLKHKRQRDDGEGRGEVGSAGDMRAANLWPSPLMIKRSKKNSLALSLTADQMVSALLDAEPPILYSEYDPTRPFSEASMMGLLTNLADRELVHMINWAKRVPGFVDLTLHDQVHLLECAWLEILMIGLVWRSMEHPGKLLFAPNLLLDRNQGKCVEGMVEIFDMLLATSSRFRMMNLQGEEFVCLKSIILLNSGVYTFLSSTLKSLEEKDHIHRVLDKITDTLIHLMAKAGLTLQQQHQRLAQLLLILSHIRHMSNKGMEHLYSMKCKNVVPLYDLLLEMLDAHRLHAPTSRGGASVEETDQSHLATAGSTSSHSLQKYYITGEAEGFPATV
protocol details: ER transcription assay (MCF7 cells), ERE-luciferase reporter
Format: cell-based
test context: MCF7 cells, ER reporter gene, 0.1 nM 17β estradiol, 24 hours; read-out: MCF7 IC50 (inflection point of the inhibition of transcription in MCF7 cells)
pIC50: −log10 of the molar value.
The molecules listed here are annotated with their pIC50.
quantity name: pIC50

molecule	recorded number
CN(C)Cc1ccccc1-c1sc2cc(O)ccc2c1Oc1ccc(/C=C/C(=O)O)cc1 [Example 77]	7.40
CNC(=O)/C=C/c1ccc(Oc2c(-c3ccc(C(F)(F)F)cc3)sc3cc(O)ccc23)cc1 [Example 63]	6.73
Cc1cc(F)ccc1-c1sc2cc(O)ccc2c1Oc1ccc(/C=C/c2nnnn2C)cc1 [Example 51]	7.21
Oc1ccc(-c2sc3cc(O)ccc3c2Oc2ccc(/C=C/c3c[nH]cn3)cc2)cc1 [Example 72]	6.90
Cc1cccc(-c2sc3cc(O)ccc3c2Oc2ccc(/C=C/C(=O)O)cc2)c1C [Example 13]	6.82
CN(c1ccc(/C=C/C(=O)O)cc1)c1c(-c2ccc(O)cc2)sc2cc(O)ccc12 [Example 30]	5.47
O=C(O)/C=C/c1ccc(Oc2c(-c3ccc(C(F)(F)F)cc3)sc3cc(O)ccc23)cc1 [Example 3]	6.03
COc1ccc(-c2sc3cc(O)ccc3c2Oc2ccc(/C=C/C(=O)O)cc2)cc1 [Example 26]	6.19
